TGT: α4β1 (Homo sapiens, UniProt P05556+P13612)
Construct: Ramos Cell Adhesion Assay (α4β1 Mediated Adhesion/VCAM-1); endogenous in cells; host or cells: Ramos cells
Sequence (P13612 34-1032): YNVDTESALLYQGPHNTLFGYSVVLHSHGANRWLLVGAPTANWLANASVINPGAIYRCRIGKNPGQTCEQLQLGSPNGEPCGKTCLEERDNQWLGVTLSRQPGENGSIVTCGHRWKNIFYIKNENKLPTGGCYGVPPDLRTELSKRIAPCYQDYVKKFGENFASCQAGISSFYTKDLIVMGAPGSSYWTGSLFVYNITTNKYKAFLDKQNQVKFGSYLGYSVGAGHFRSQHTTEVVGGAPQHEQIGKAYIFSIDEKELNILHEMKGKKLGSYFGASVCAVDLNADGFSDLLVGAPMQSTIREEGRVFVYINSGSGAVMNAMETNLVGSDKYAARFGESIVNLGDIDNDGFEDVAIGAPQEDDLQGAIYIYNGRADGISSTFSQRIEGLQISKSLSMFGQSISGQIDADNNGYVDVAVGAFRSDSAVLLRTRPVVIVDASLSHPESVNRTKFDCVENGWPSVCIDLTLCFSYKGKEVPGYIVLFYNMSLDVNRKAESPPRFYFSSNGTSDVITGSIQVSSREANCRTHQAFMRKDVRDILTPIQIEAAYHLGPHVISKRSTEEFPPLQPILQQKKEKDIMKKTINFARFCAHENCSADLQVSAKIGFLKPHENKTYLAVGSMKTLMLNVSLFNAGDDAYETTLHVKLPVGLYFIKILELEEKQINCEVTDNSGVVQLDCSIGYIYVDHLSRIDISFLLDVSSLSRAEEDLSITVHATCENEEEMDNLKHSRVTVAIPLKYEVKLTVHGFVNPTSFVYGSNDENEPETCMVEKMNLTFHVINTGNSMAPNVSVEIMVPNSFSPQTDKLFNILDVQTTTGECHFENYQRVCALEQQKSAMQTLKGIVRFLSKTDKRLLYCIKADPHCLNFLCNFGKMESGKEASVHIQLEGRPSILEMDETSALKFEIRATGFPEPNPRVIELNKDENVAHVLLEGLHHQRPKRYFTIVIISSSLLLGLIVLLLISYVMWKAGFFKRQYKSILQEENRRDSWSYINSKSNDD
Sequence (P05556 21-798): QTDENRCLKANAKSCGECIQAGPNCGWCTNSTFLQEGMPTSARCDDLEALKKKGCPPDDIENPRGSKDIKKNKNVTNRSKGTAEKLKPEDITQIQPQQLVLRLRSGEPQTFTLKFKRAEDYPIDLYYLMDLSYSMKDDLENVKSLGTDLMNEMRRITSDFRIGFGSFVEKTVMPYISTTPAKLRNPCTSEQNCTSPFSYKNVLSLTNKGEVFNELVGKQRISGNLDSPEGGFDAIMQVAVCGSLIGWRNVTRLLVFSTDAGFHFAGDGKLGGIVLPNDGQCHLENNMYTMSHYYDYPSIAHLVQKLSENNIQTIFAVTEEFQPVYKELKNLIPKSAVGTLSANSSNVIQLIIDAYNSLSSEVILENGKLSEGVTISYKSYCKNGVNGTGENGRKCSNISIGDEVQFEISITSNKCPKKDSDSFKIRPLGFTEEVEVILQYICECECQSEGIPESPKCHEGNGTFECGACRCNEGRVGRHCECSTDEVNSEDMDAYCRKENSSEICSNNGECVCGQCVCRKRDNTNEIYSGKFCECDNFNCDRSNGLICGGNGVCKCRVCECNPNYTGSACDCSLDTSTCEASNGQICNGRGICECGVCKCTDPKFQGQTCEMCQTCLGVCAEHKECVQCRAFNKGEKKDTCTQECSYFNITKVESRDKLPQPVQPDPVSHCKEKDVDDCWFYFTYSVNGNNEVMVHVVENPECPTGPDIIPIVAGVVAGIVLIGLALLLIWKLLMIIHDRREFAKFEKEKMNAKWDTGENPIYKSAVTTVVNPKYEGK
TEST METHOD NOTES: Ramos Cell Adhesion Assay (α4β1 Mediated Adhesion/VCAM-1)
Assay type: cell-based
CONDITION DESCRIPTION: Ramos cell adhesion to hVCAM-1; read-out: α4β1 IC50
pIC50: −log10 of the molar value.
OBSERVABLE: pIC50

1. COc1cnn(C)c(=O)c1-c1ccc(C[C@H](NC(=O)c2ccc(CO)cc2)C(=O)O)cc1
2. COc1cnn(C(C)(C)C)c(=O)c1-c1ccc(C[C@H](NC(=O)c2c(Cl)cccc2Cl)C(=O)O)cc1
3. Cn1ncc(OCC(F)(F)F)c(-c2ccc(C[C@H](NC(=O)c3c(Cl)cccc3Cl)C(=O)O)cc2)c1=O
# descending pIC50 order for the listed compounds Your answer should be the labels, listed in the requested order.
3, 2, 1
(3: 6.32, 2: 6.10, 1: 5.55)
